Provenance of the data: patent US20240252488A1

# TEST_SYSTEM: MLKL (Homo sapiens, UniProt Q8NB16)
# Sequence (Q8NB16 whole entry): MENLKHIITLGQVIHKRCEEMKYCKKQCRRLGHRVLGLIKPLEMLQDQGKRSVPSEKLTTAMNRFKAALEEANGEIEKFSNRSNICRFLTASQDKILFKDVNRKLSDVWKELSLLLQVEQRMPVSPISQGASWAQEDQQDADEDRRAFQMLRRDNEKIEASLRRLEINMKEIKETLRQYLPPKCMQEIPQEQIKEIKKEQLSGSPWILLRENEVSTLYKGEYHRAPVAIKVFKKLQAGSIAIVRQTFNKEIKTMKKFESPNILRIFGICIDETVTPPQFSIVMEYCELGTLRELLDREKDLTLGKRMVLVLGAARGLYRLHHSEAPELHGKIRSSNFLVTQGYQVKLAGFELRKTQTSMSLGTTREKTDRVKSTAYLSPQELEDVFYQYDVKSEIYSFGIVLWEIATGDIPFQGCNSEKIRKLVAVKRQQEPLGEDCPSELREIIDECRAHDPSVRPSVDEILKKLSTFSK
# PROCEDURE_SUMMARY: MLKL degradation assay in HepG2 cell line (western blot)
# Assay type: cell-based
# Parameters: endogenous in cells; host or cells: HepG2 or HaCaT
# PARTICULARS: compound 1 μM; cell line not given
# Degradation assay (Degradation %) 1 μM per record follows
Your reply should be a number followed by the unit it is expressed in.

Here are 2 molecules together with their reported answers.
Nc1ncc(-c2cn(C3CCN(CC4CCN(c5cccc6c5C(=O)N(C5CCC(=O)NC5=O)C6=O)CC4)CC3)nn2)nc1C(=O)OC(C(=O)Nc1ccc(F)cc1)c1ccccc1 (stereo not shown)
36.29%
Nc1ncc(-c2cnn(C3CCN(CCOCCOCCOCCNC(=O)COc4ccc5c(c4)C(=O)N(C4CCC(=O)NC4=O)C5=O)CC3)c2)nc1C(=O)O[C@@H](C(=O)Nc1ccc(F)cc1)c1ccccc1 (stereo partly shown)
18.17%

q: May I ask what Degradation assay (Degradation %) 1 μM has been recorded for Nc1ncc(-c2cnn(C3CCN(CCCCCCCCCCNc4ccc5nnn(C6CCC(=O)NC6=O)c(=O)c5c4)CC3)c2)nc1C(=O)O[C@@H](C(=O)Nc1ccc(F)cc1)c1ccccc1 (stereo partly shown) ?
a: 78.61%

q: Moving on to the next molecule: COc1ccc(C(=O)N2CCC(CN3CCC(CCN4CCC(n5cc(-c6cnc(N)c(C(=O)O[C@@H](C(=O)Nc7ccc(F)cc7)c7ccccc7)n6)cn5)CC4)CC3)CC2)cc1N1CCC(=O)NC1=O
a: 90.52%

* * *

Degradation assay (Degradation %) 10 μM values, listed per item
# TEST_SYSTEM: MLKL (Homo sapiens)
# PROCEDURE_SUMMARY: MLKL degradation assay in HepG2 cell line (western blot)
# Type: cell-based
# Design: endogenous in cells; host or cells: HepG2 or HaCaT
# PARTICULARS: compound 10 μM; cell line not given
Express your answer in %, writing the number without its unit.

q: Query: Degradation assay (Degradation %) 10 μM; subject: Cc1ncsc1-c1ccc(CNC(=O)[C@H]2C[C@H](O)CN2C(=O)[C@@H](NC(=O)CN2CCC(CCN3CCC(n4cc(-c5cnc(N)c(C(=O)OC(C(=O)Nc6ccc(F)cc6)c6ccccc6)n5)cn4)CC3)CC2)C(C)(C)C)cc1 (some centres unmarked) [TDH-312]
a: 40.64

q: Please give the result for Nc1ncc(-c2cnn(C3CCN(C(=O)CC4CCN(C(=O)C5CN(c6ccc7nnn(C8CCC(=O)NC8=O)c(=O)c7c6)C5)CC4)CC3)c2)nc1C(=O)O[C@@H](C(=O)Nc1ccc(F)cc1)c1ccccc1 (some centres unmarked) [TDH-406] too.
a: 60.15

q: Now consider Nc1ncc(-c2cnn(C3CCN(C[C@H]4CC[C@H](CNC(=O)Cc5cccc(NC6=CC(=O)N(C7CCC(=O)NC7=O)C6=O)c5)CC4)CC3)c2)nc1C(=O)O[C@@H](C(=O)Nc1ccc(F)cc1)c1ccccc1 (some centres unmarked) [TDH-498] and answer again.
a: 89.27

q: For Nc1ncc(-c2cnn(C3CCN(CCCN4CC5CC4CN5C(=O)CNc4ccc5c(c4)C(=O)N(C4CCC(=O)NC4=O)C5=O)CC3)c2)nc1C(=O)O[C@@H](C(=O)Nc1ccc(F)cc1)c1ccccc1 (some centres unmarked) [TDH-454] then?
a: 90.47

q: Lookup Nc1ncc(-c2cnn(C3CCN(C4CC5(CCN(CC6CCN(C(=O)C7CN(C8=CC(=O)N(C9CCC(=O)NC9=O)C8=O)C7)CC6)CC5)C4)CC3)c2)nc1C(=O)O[C@@H](C(=O)Nc1ccc(F)cc1)c1ccccc1 (some centres unmarked) [TDH-534]
a: 24.88

* * *

# TEST_SYSTEM: MLKL (Homo sapiens, UniProt Q8NB16)
# PROCEDURE_SUMMARY: MLKL degradation assay in HepG2 cell line (western blot)
# Format: cell-based
# Parameters: endogenous in cells; host or cells: HepG2 or HaCaT
# PARTICULARS: compound 10 μM; cell line not given
Tick true if Degradation assay (Degradation %) 10 μM is 60% or greater. Tick false if Degradation assay (Degradation %) 10 μM is less than 60%.

Nc1ncc(-c2cnn(C3CCN(CCC4CCN(C(=O)CNc5ccc6nnn(C7CCC(=O)NC7=O)c(=O)c6c5)CC4)CC3)c2)nc1C(=O)OC(C(=O)Nc1ccc(F)cc1)c1ccccc1 (stereo not shown)
true
Cn1c(=O)n(C2CCC(=O)NC2=O)c2ccc(N3CCC(C(=O)N4CCN(CCCN5CCC(n6cc(-c7cnc(N)c(C(=O)O[C@@H](C(=O)Nc8ccc(F)cc8)c8ccccc8)n7)cn6)CC5)CC4)CC3)cc21 (stereo partly shown)
false

Attention now shifts to the item below.
q: Assess whether reported Degradation assay (Degradation %) 10 μM for Nc1ncc(-c2cnn(C3CCN(CCOCCOCCNC(=O)CNc4ccc5nnn(C6CCC(=O)NC6=O)c(=O)c5c4)CC3)c2)nc1C(=O)O[C@@H](C(=O)Nc1ccc(F)cc1)c1ccccc1 (stereo partly shown) sits at 60% or higher.
a: false

* * *

# TEST_SYSTEM: MLKL (Homo sapiens, UniProt Q8NB16)
Structures can show the parent of a compound that is named as a salt.
Rule: Kd below 0.8 nM gives TRUE. Equal to or above 0.8 nM gives FALSE.

CC1CCC(NC(=O)[C@H](OC(=O)c2nc(-c3cnn(C4CCNCC4)c3)cnc2N)c2ccccc2)CC1 (some centres unmarked) [TDH-424, hydrochloride]
FALSE
Nc1ncc(-c2cnn(C3CCN(CCCN4CCN(C(=O)c5ccc6c(N7CCC(=O)NC7=O)coc6c5)CC4)CC3)c2)nc1C(=O)O[C@@H](C(=O)Nc1ccc(F)cc1)c1ccccc1 [TDH-551]
TRUE
Nc1ncc(-c2cnn(C3CCN(CC4CCN(CC5CCN(C(=O)COc6ccc7c(c6)C(=O)N(C6CCC(=O)NC6=O)C7=O)CC5)CC4)CC3)c2)nc1C(=O)O[C@@H](C(=O)Nc1ccc(F)cc1)c1ccccc1 (some centres unmarked) [TDH-425]
TRUE

q: # strict comparison: is reported Kd < 0.8 nM? input = Nc1ncc(-c2cnn(C3CCN(C[C@H]4CC[C@H](CNC(=O)COc5ccc6c(c5)C(=O)N(C5CCC(=O)NC5=O)C6=O)CC4)CC3)c2)nc1C(=O)O[C@@H](C(=O)Nc1ccc(F)cc1)c1ccccc1 (some centres unmarked) [TDH-346]
a: FALSE

* * *

# TEST_SYSTEM: UniProt Q8NB16
# PROCEDURE_SUMMARY: MLKL degradation assay in HepG2 cell line (western blot)
# Assay type: cell-based
# Parameters: endogenous in cells; host or cells: HepG2 or HaCaT
# PARTICULARS: compound 10 μM; cell line not given
// reported Degradation assay (Degradation %) 10 μM for each item listed
// note: answer is a bare numeric in %

Solved entries:
Nc1ncc(-c2cnn(C3CCN(C(=O)COCCOCCNc4ccc5c(c4)C(=O)N(C4CCC(=O)NC4=O)C5=O)CC3)c2)nc1C(=O)O[C@@H](C(=O)Nc1ccc(F)cc1)c1ccccc1 (some centres unmarked)
40.8
Nc1ncc(-c2cnn(C3CCN(CCOC4CCN(C(=O)CCc5ccc6c(c5)C(=O)N(C5CCC(=O)NC5=O)C6=O)CC4)CC3)c2)nc1C(=O)O[C@@H](C(=O)Nc1ccc(F)cc1)c1ccccc1 (some centres unmarked)
88.75
Nc1ncc(-c2cnn(C3CCN(CCCN4CCN(C(=O)CC5CCN(c6ccc7c(c6)C(=O)N(C6CCC(=O)NC6=O)C7=O)CC5)CC4)CC3)c2)nc1C(=O)O[C@@H](C(=O)Nc1ccc(F)cc1)c1ccccc1 (some centres unmarked)
94
Nc1ncc(-c2cnn(C3CCN(CCOCCOCCNC(=O)C4CCN(c5cccc6c5C(=O)N(C5CCC(=O)NC5=O)C6=O)CC4)CC3)c2)nc1C(=O)N[C@@H](C(=O)Nc1ccc(F)cc1)c1ccccc1 (some centres unmarked)
8.28

From here, focus on the item given below.
q: Bench note: what Degradation assay (Degradation %) 10 μM did Nc1ncc(-c2cnn(C3CCN(C(=O)C4CCN(c5ccc6c(c5)C(=O)N(C5CCC(=O)NC5=O)C6=O)CC4)CC3)c2)nc1C(=O)OC(C(=O)Nc1ccc(F)cc1)c1ccccc1 (centres unmarked) show?
a: 39.22

* * *

# TEST_SYSTEM: MLKL (Homo sapiens, UniProt Q8NB16)
# PROCEDURE_SUMMARY: MLKL degradation assay in HepG2 cell line (western blot)
# Format: cell-based
# Set-up: endogenous in cells; host or cells: HepG2 or HaCaT
# PARTICULARS: compound 10 μM; cell line not given
Use Degradation assay (Degradation %) 10 μM to assign classes; range list: low (below 30%), moderate (30% to below 70%), high (70% or more)

// known answers, use as guide
Nc1ncc(-c2cnn(C3CCN(CCOC4CCN(C(=O)CNc5cccc6c5C(=O)N(C5CCC(=O)NC5=O)C6=O)CC4)CC3)c2)nc1C(=O)OC(C(=O)Nc1ccc(F)cc1)c1ccccc1 (stereo not shown)
low
Nc1ncc(-c2cnn(C3CCN(CCOC4CCN(C(=O)c5ccc6c(c5)CN(C5CCC(=O)NC5=O)C6=O)CC4)CC3)c2)nc1C(=O)O[C@@H](C(=O)Nc1ccc(F)cc1)c1ccccc1 (stereo partly shown)
moderate
Nc1ncc(-c2cnn(C3CCN(C(=O)CCC4CCN(C(=O)CCc5cccc6c5C(=O)N(C5CCC(=O)NC5=O)C6=O)CC4)CC3)c2)nc1C(=O)O[C@@H](C(=O)Nc1ccc(F)cc1)c1ccccc1 (stereo partly shown)
high

q: Form: Item = Nc1ncc(-c2cn(C3CCN(CC4CCN(C(=O)CNc5ccc6c(c5)C(=O)N(C5CCC(=O)NC5=O)C6=O)CC4)CC3)nn2)nc1C(=O)OC(C(=O)Nc1ccc(F)cc1)c1ccccc1 (stereo not shown) ; Class = ?
a: low
